Biological target: 5-HT6 receptor (Homo sapiens (Human))
Sequence (P50406 whole entry): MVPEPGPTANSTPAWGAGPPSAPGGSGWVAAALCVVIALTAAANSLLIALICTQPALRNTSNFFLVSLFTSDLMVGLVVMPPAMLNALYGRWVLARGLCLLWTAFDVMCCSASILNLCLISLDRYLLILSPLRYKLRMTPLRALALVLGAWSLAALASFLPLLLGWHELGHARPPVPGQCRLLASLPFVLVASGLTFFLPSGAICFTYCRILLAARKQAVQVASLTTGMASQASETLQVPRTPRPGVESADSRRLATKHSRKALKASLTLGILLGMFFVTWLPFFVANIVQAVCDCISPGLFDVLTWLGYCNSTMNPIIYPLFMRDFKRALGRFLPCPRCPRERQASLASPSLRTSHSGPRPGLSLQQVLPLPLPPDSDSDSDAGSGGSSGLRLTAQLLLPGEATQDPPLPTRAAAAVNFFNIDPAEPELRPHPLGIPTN
Test: Antagonistic activity towards 5-HT6 receptors: inhibition of serotonin-induced intracellular cAMP (LANCE cAMP) in HEK 293 cells
Format: cell-based
Conditions: HEK293, read-out: % inhibition of 5-HT6 receptors (I, %), 10 μM solutions, serotonin-induced cAMP
inhibition at 10 µM values by entry
observationType: inhibition at 10 µM (%)

{"columns": ["molecule", "measuredTarget", "observationType", "measured"],
 "data": [
  ["CSc1nn2c(C)cc(C)nc2c1S(=O)(=O)c1ccccc1 [1.1(5)]", "5-HT6 receptor (Homo sapiens (Human))", "inhibition at 10 µM", 104],
  ["Cc1cc(C)n2nc(OCCN(C)C)c(S(=O)(=O)c3ccccc3)c2n1 [1.1(22)]", "5-HT6 receptor (Homo sapiens (Human))", "inhibition at 10 µM", 66],
  ["CSc1nn2c(C)cc(C)nc2c1S(=O)(=O)c1cccc(F)c1 [1.1(9)]", "5-HT6 receptor (Homo sapiens (Human))", "inhibition at 10 µM", 100],
  ["Cc1cc(C)n2ncc(S(=O)(=O)c3ccccc3)c2n1 [1.1(1)]", "5-HT6 receptor (Homo sapiens (Human))", "inhibition at 10 µM", 78],
  ["Cc1cc(C)n2nc(C)c(S(=O)(=O)c3ccccc3)c2n1 [1.1(13)]", "5-HT6 receptor (Homo sapiens (Human))", "inhibition at 10 µM", 86],
  ["CSc1nn2c(C)cc(C)nc2c1S(=O)(=O)c1ccc(Cl)cc1 [1.1(16)]", "5-HT6 receptor (Homo sapiens (Human))", "inhibition at 10 µM", 94],
  ["CCSc1nn2c(C)cc(C)nc2c1S(=O)(=O)c1cccc(Cl)c1 [1.1(12)]", "5-HT6 receptor (Homo sapiens (Human))", "inhibition at 10 µM", 101],
  ["CSc1nn2c(C)cc(-c3ccccc3)nc2c1S(=O)(=O)c1ccccc1 [1(5)]", "5-HT6 receptor (Homo sapiens (Human))", "inhibition at 10 µM", 68],
  ["CCSc1nn2c(C)cc(C)nc2c1S(=O)(=O)c1cccc(F)c1 [1.1(10)]", "5-HT6 receptor (Homo sapiens (Human))", "inhibition at 10 µM", 103],
  ["CSc1nn2c(C)cc(C)nc2c1S(=O)(=O)c1cccc(Cl)c1 [1.1(11)]", "5-HT6 receptor (Homo sapiens (Human))", "inhibition at 10 µM", 101],
  ["CSc1nn2c(-c3ccccc3)cc(C)nc2c1S(=O)(=O)c1ccccc1 [1(1)]", "5-HT6 receptor (Homo sapiens (Human))", "inhibition at 10 µM", 88],
  ["CCSc1nn2c(C)cc(C)nc2c1S(=O)(=O)c1ccc(F)cc1 [1.1(8)]", "5-HT6 receptor (Homo sapiens (Human))", "inhibition at 10 µM", 102],
  ["Cc1cc(C)n2nc(C)c(S(=O)(=O)c3cccnc3)c2n1 [1(3)]", "5-HT6 receptor (Homo sapiens (Human))", "inhibition at 10 µM", 78],
  ["Cc1cc(C)n2nc(OCCO)c(S(=O)(=O)c3ccc(F)cc3)c2n1 [1.1(4)]", "5-HT6 receptor (Homo sapiens (Human))", "inhibition at 10 µM", 73],
  ["CCSc1nn2c(C)cc(C)nc2c1S(=O)(=O)c1ccc(OC)cc1 [1.1(18)]", "5-HT6 receptor (Homo sapiens (Human))", "inhibition at 10 µM", 61],
  ["Cc1cc(C)n2nc(C)c(S(=O)(=O)c3ccc(F)cc3)c2n1 [1.1(21)]", "5-HT6 receptor (Homo sapiens (Human))", "inhibition at 10 µM", 78],
  ["Cc1cc(C)n2nc(C)c(S(=O)(=O)c3ccncc3)c2n1 [1(2)]", "5-HT6 receptor (Homo sapiens (Human))", "inhibition at 10 µM", 77],
  ["CSc1nn2c(C)cc(C)nc2c1S(=O)(=O)c1ccc(F)c(Cl)c1 [1.1(20)]", "5-HT6 receptor (Homo sapiens (Human))", "inhibition at 10 µM", 100],
  ["CCSc1nn2c(C)cc(C)nc2c1S(=O)(=O)c1ccccc1 [1.1(6)]", "5-HT6 receptor (Homo sapiens (Human))", "inhibition at 10 µM", 104],
  ["CSc1nn2c(C)cc(C)nc2c1S(=O)(=O)c1ccc(N(C)C)cc1 [1.1(19)]", "5-HT6 receptor (Homo sapiens (Human))", "inhibition at 10 µM", 87],
  ["Cc1cc(C)n2nc(C)c(S(=O)(=O)c3cccc(F)c3)c2n1 [1.1(14)]", "5-HT6 receptor (Homo sapiens (Human))", "inhibition at 10 µM", 88],
  ["CSc1nn2c(C)cc(C)nc2c1S(=O)(=O)c1ccc(F)cc1 [1.1(7)]", "5-HT6 receptor (Homo sapiens (Human))", "inhibition at 10 µM", 101],
  ["Cc1cc(C)n2nc(C)c(S(=O)(=O)c3cccs3)c2n1 [1(4)]", "5-HT6 receptor (Homo sapiens (Human))", "inhibition at 10 µM", 69],
  ["Cc1cc(C)n2nc(OCCO)c(S(=O)(=O)c3ccccc3)c2n1 [1.1(2)]", "5-HT6 receptor (Homo sapiens (Human))", "inhibition at 10 µM", 82],
  ["COc1ccc(S(=O)(=O)c2c(SC)nn3c(C)cc(C)nc23)cc1 [1.1(17)]", "5-HT6 receptor (Homo sapiens (Human))", "inhibition at 10 µM", 65.4],
  ["CCSc1nn2c(C)cc(C)nc2c1S(=O)(=O)c1ccc(C)cc1 [1.1(15)]", "5-HT6 receptor (Homo sapiens (Human))", "inhibition at 10 µM", 99]
]}
